test name: Drug level in New Zealand white rabbit ligament assessed as [14C]dalbavancin level per gram of tissue at 20 mg/kg, iv after 24 hrs by autoradioluminography
Format: ADME, organism-based, Oryctolagus cuniculus
Set-up: dose 20 mg/kg, route intravenous
assay conditions: in vivo
metric: Drug uptake

{"chemical string": "CN[C@H]1C(=O)N[C@@H]2Cc3ccc(cc3)Oc3cc4cc(c3O[C@@H]3O[C@H](C(=O)O)[C@@H](O)[C@H](O)[C@H]3NC(=O)CCCCCCCCC(C)C)Oc3ccc(cc3Cl)[C@@H](O)[C@@H]3NC(=O)[C@H](NC(=O)[C@@H]4NC(=O)[C@@H](NC2=O)c2cc(cc(O)c2Cl)Oc2cc1ccc2O)c1ccc(O)c(c1)-c1c(O[C@H]2O[C@H](CO)[C@@H](O)[C@H](O)[C@@H]2O)cc(O)cc1[C@@H](C(=O)NCCCN(C)C)NC3=O", "metric": "Drug uptake", "measured value": "8.64 µg/g"}

====

test name: Drug level in New Zealand white rabbit periostium assessed as [14C]dalbavancin level per gram of tissue at 20 mg/kg, iv after 12 hrs by autoradioluminography
Assay type: ADME, organism-based, Oryctolagus cuniculus, Periosteum
Parameters: dose 20 mg/kg, route intravenous
assay conditions: in vivo

{"chemical string": "CN[C@H]1C(=O)N[C@@H]2Cc3ccc(cc3)Oc3cc4cc(c3O[C@@H]3O[C@H](C(=O)O)[C@@H](O)[C@H](O)[C@H]3NC(=O)CCCCCCCCC(C)C)Oc3ccc(cc3Cl)[C@@H](O)[C@@H]3NC(=O)[C@H](NC(=O)[C@@H]4NC(=O)[C@@H](NC2=O)c2cc(cc(O)c2Cl)Oc2cc1ccc2O)c1ccc(O)c(c1)-c1c(O[C@H]2O[C@H](CO)[C@@H](O)[C@H](O)[C@@H]2O)cc(O)cc1[C@@H](C(=O)NCCCN(C)C)NC3=O", "unit": "µg/g", "Drug uptake": 20.9}

====

test name: Drug level in New Zealand white rabbit epiphyseal plate assessed as [14C]dalbavancin level per gram of tissue at 20 mg/kg, iv after 336 hrs by autoradioluminography
Format: ADME, organism-based, Oryctolagus cuniculus
Parameters: dose 20 mg/kg, route intravenous
assay conditions: in vivo

{"chemical string": "CN[C@H]1C(=O)N[C@@H]2Cc3ccc(cc3)Oc3cc4cc(c3O[C@@H]3O[C@H](C(=O)O)[C@@H](O)[C@H](O)[C@H]3NC(=O)CCCCCCCCC(C)C)Oc3ccc(cc3Cl)[C@@H](O)[C@@H]3NC(=O)[C@H](NC(=O)[C@@H]4NC(=O)[C@@H](NC2=O)c2cc(cc(O)c2Cl)Oc2cc1ccc2O)c1ccc(O)c(c1)-c1c(O[C@H]2O[C@H](CO)[C@@H](O)[C@H](O)[C@@H]2O)cc(O)cc1[C@@H](C(=O)NCCCN(C)C)NC3=O", "Drug uptake (µg/g)": 8.42}

====

test name: Drug level in New Zealand white rabbit periostium assessed as [14C]dalbavancin level per gram of tissue at 20 mg/kg, iv after 120 hrs by autoradioluminography
Assay type: ADME, organism-based, Oryctolagus cuniculus, Periosteum
Set-up: dose 20 mg/kg, route intravenous
assay conditions: in vivo

{"chemical string": "CN[C@H]1C(=O)N[C@@H]2Cc3ccc(cc3)Oc3cc4cc(c3O[C@@H]3O[C@H](C(=O)O)[C@@H](O)[C@H](O)[C@H]3NC(=O)CCCCCCCCC(C)C)Oc3ccc(cc3Cl)[C@@H](O)[C@@H]3NC(=O)[C@H](NC(=O)[C@@H]4NC(=O)[C@@H](NC2=O)c2cc(cc(O)c2Cl)Oc2cc1ccc2O)c1ccc(O)c(c1)-c1c(O[C@H]2O[C@H](CO)[C@@H](O)[C@H](O)[C@@H]2O)cc(O)cc1[C@@H](C(=O)NCCCN(C)C)NC3=O", "Drug uptake (µg/g)": 12.2}
